Taken from PubChem BioAssay (NCI).

# Tested on: ACHN renal
# assayInfo: NCI tumour cell line growth inhibition, 48 h
recordedMetric: GI50

Consider the reported GI50 for these compounds:
| compound | targetOfAssay | observedResult |
| --- | --- | --- |
| CSC1=Nc2c(c(C)c(-c3ccccc3)n2COC(CO)CO)C2=NC(=O)CC(C)N12 (centres undefined) | ACHN renal | > 100 µM |
| COc1cc(/C=C2\SC(N3CCCCC3)=NC2=O)ccc1OCCCCCCOc1ccc(/C=C2\SC(N3CCCCC3)=NC2=O)cc1OC | ACHN renal | 15.1 µM |

Form: compound = `COc1ccc(-c2cc(/C=C/C(=O)c3ccc(N)cc3)[nH]n2)cc1` ; GI50 = 2.01 µM

compound `Cn1cnnc1[S-].[Au+].c1ccc([PH+](c2ccccc2)c2ccccc2)cc1` , GI50 observed: 1.77 µM

What the record says about COc1ccc(C(O)c2cc3c(N)c(C(=O)Nc4cccc(Br)c4C)sc3nc2C)cc1 (centres undefined) : GI50 is 0.216 µM

// recorded GI50 for `COc1cccc(-c2nc3sccn3c2-c2ccnc(NCCCNS(=O)(=O)c3ccccc3)c2)c1` : 2.66 µM

`CCOC(=O)c1c(NC(=O)c2ccc(Cl)cc2)sc2c(CN(C)C)c(O)ccc12` yielded GI50 of 4.28 µM

* * *

# Test system: NCI/ADR-RES ovarian
# assayInfo: NCI tumour cell line growth inhibition, 48 h
recordedMetric: TGI

| compound | TGI |
| --- | --- |
| C=CCN1CCC(c2cc(C(=O)OCC)[nH]c2-c2cc(C)no2)C1=O (stereo not given) | > 100 µM |
| COc1ccc(-c2csc(Nc3cccc(-c4csc(C)n4)c3)n2)cc1 | 4.19 µM |
| COc1cc2c3cc1Oc1c(OC)c(OC)cc4c1C(Cc1ccc(O)c(c1)Oc1ccc(cc1)CC3N(C)CC2)N(C)CC4 (stereo not given) | > 100 µM |
| Cc1ccc(S(=O)(=O)N2CCSCCSCCSCCN(S(=O)(=O)c3ccc(C)cc3)CC2)cc1 | > 100 µM |
| CCCCCCCCCCCCOCC1(COCCCCCCCCCCCC)COC(c2ccc(N)cc2)OC1 | > 100 µM |
| C/C(C=O)=C/[C@@]1(C)O[C@@H](C)[C@@](C)(O)[C@@H]1O | 56.1 µM |
| CC(C)OP(=O)(O)c1ncc(-c2ccc(C(F)(F)F)cc2)c(NC2CCCCCC2)n1 | > 100 µM |
| O=[N+]([O-])c1ccc(-c2nn3c(C45CC6CC(CC(C6)C4)C5)nnc3s2)c(Cl)c1 | > 100 µM |

Please fill in: TGI reported for COc1ccc(COCC[C@H](C)OC2OC(CO)C(O)C(O)C2O)cc1 (stereo not given in full) = > 100 µM

Lab note: `C1CSCC2(COC2)CSCCSCC2(COC2)CS1` gave TGI of > 100 µM

The compound identified as CCc1ccc2c(c1)N(CCO)C1=C(C(=O)OC1)C2c1cc(OC)c(OC)c(OC)c1 (stereo not given) registered its TGI at 6.65 µM

* * *

// values below are reported TGI
# Tested on: CAKI-1 renal
# assayInfo: NCI tumour cell line growth inhibition, 48 h

Examples from the recorded data:
| molecule | recordedMetric | observedResult |
| --- | --- | --- |
| C[C@@H]1CC[C@H]2[C@H](C)C(OC3O[C@@H]4O[C@@]5(C)CC[C@H]6[C@H](C)CC[C@@H]([C@@H]3C)[C@@]46O5)O[C@@H]3O[C@@]4(C)CC[C@@H]1[C@]32O4 (stereo not given in full) | TGI | > 100 µM |
| CC(Cn1c2c(c3cc(O)ccc31)CCc1ccc(O)cc1-2)N(C)C (stereo not given) | TGI | 52.8 µM |
| COc1ccccc1-c1c(C#N)c(N)[nH]c(=S)c1C#N | TGI | > 100 µM |
| COc1ccc(C2NC(=S)NC3=C2CCOc2c3ccc3ccccc23)cc1 (stereo not given) | TGI | > 100 µM |

Proceed to the following item.
`O=CNc1ccccc1OCCOc1ccccc1NC=O` has a reported TGI of > 100 µM
